target: human IL-6Rα (hIL-6Rα), barcoded negative control antigen (human) (UniProt P08887); test: barcoded-antigen count on source cell (scRNA-seq)
Sequence (P08887 20-358 limits assumed): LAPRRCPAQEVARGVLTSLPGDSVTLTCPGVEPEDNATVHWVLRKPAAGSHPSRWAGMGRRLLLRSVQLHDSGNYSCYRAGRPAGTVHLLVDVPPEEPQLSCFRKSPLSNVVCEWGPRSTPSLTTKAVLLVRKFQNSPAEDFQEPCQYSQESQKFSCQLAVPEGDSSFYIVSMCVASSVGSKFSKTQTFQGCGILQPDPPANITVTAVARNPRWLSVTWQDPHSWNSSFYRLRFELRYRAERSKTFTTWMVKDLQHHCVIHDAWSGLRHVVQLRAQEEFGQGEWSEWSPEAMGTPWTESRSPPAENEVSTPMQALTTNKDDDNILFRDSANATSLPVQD

Binder | Readout unit | REGN78.L15 ab raw
Table 1 Line # 48 antibody (SP_Plasma_cell) (antibody, human IgG4, V domains shown) VH: EVQLVESGGVLVQPGRSLRLSCAASGFTFDDFAMHWVRQAPGKGLEWVSGISWNGNSIGYADSVKGRFTISRDNAKNSLYLQMNSLRTEDTALYYCAKDTSSWSYYYGMDVWGQGTTVTVSS VL: DIQMTQSPSSLSASVGDRVTITCRASQGIRNDLGWYQQKPGKAPKRLIYAASNLQSGVPSRFSGSGSGTEFTFTISSLQPEDFATYYCLQHNSYPYTFGQGTKLEIK | counts | 17
Table 1 Line # 3 antibody (BM_Plasma_cell) (antibody, human IgG4, V domains shown) VH: EVQLVESGGGLVQPGRSLRLSCAASGFTFDDYAMHWVRQVTGKGLEWVSGINWNSGNIGYADSVRGRFTISRDNAKNSLYLQMNSLRAEDTALYYCAKDSGSSWYGYFDLWGRGTLVTVSS VL: DIQMTQSPSTLSASVGDRVTITCRASQSISRWLAWYQQKPGKAPKFLIYKASSLESGVPSRFSGSGSGTEFTLTISSLQPDDFATYYCQQYNSDSRTFGQGTKVEIK | counts | 236
Table 1 Line # 18 antibody (BM_Plasma_cell) (antibody, human IgG4, V domains shown) VH: EVQLVQSGAEVKKPGESLKISCKGSGYRFTTNWIGWVRQMPGKGLEWMGIIYPDDSDTRYSPSFQGQVTISADKSINTAYLHWNSLKSSDTAIYYCARGANWFDPWGQGTLVTVSS VL: EIVLTQSPGILSLSPGKRATLSCRASQSVSSNFLAWYQQKPGQAPRLLIYGTSSRANGIPDRFSGSGSGTDFTLTISGLEPEDFAEYYCQQYGSSVTFGQGTRLEIK | counts | 55
